TGI for assorted molecules
Tested on: SNB-19 CNS
Assay Notes: NCI tumour cell line growth inhibition, 48 h

Some solved entries appear below for comparison.
O=C(O)CC1(CC(=O)O)Nc2ccccc2SC1=O :: > 100 µM
CN1CCN(c2cc(-c3cc4ccccc4o3)oc(=O)c2C#N)CC1 :: > 100 µM
Cn1ccnc1C(=O)/C=C/c1ccc(CC(=O)Nc2ccc(C(F)(F)F)cc2)cc1 :: 5.09 µM
C[n+]1cccc2ccc(OC(=O)c3ccccc3)cc21 :: > 100 µM
CCNCCNc1cc(C2CCCCC2)c(C#N)c2nc3ccccc3n12 :: 18.4 µM

# evaluate next
Lookup: Provide one value: measured TGI of O=C(/C=C/c1ccccc1)CSc1nc2ccc(I)cc2c(=O)n1Cc1ccccc1
Found: > 100 µM

---

System: PC-3 prostate
Assay Notes: NCI tumour cell line growth inhibition, 48 h
Measurement Type: GI50

Look over these answered cases.
CCCOC(=O)CCn1c(SC)nc2[nH]cc(-c3ccccc3)c2c1=O :: 14.6 µM
C/C=C/[C@@H]1OC(=O)C2=C[C@@H](O)[C@@H](/C=C/C)O[C@H]21 :: 13.9 µM
CCCCNC(=O)NS(=O)(=O)c1ccc(N2N=C(c3cc(C)ccc3C)CC2c2cc(OC)c(OC)c(OC)c2)cc1 (stereo not drawn) :: 1.94 µM

Lookup: Enter measured GI50, system PC-3 prostate, for the molecule shown: COCCNc1cc(NC(=O)N2CCCc3cc(CN4CCN(C)CC4=O)c(C=O)nc32)ncc1C#N
Found: > 50 µM

Lookup: Report the value of GI50 obtained on PC-3 prostate for Cn1ccnc1C(=O)/C=C/c1ccc(CC(=O)Nc2ccc(C(F)(F)F)cc2)cc1 .
Found: 1.01 µM

---

Test system: ACHN renal
Assay Notes: NCI tumour cell line growth inhibition, 48 h
Measurement Type: TGI (µM)
Form entry: value (µM) — number only.

Worked examples follow.
COC(=O)C1=C(C)NC(C)=C(C(=O)OC)C1c1cccc(NO)c1 :: 26.8
CCCC(Sc1ccccc1)P(=O)(c1ccccc1)c1ccccc1 (stereo unspecified) :: 61.4
COc1ccc(/C=C2\CCC(CN(C)C)C2=O)cc1OC (stereo unspecified) :: 15.9
CC(=O)O[C@H]1CC[C@@]2(C)[C@@H](CC[C@@H]3[C@@H]2CC[C@]2(C)C=C(C=O)C[C@@H]32)C1 :: 60.8
Nc1cc(N)c2nc(-c3ccccc3)c(NCc3ccc(F)cc3)nc2c1 :: 3.11

# context switch: different compound, same TGI
Lookup: Report TGI, nothing else, for this compound: CCOC(=O)/C=C(\C(=O)OCC)n1ccc(=O)n(CC(=O)OCC)c1=O
Found: 3.29

---

Recorded measurements of TGI, one per entry
Test system: CAKI-1 renal
Assay Notes: NCI tumour cell line growth inhibition, 48 h

// below: answered compounds
CC(C)(C#N)c1cc(C(=O)Nc2cc(Nc3ncccc3-c3ncnc4nc[nH]c34)ccc2F)cc(C(F)(F)F)c1 :: > 3.55 µM
O=C(CN(/C=C/C(=O)C(F)(F)F)c1ccccc1)c1ccc(Cl)c(Cl)c1 :: 23.4 µM
COc1cc(/C=C/C(=O)c2sc(NNC(C)=O)nc2C)ccc1O :: > 100 µM
COC(=O)C(F)C(Br)C(=O)OC (stereo not given) :: 5.17 µM

Lookup: Answer with reported TGI of O=C(CCCN1CCC2(CC1)CC(=O)N(N1CCCCCC1)C2=O)c1ccc(F)cc1
Found: > 100 µM

Lookup: Report TGI for N#Cc1cc([N+](=O)[O-])ccc1NC(=O)/C(=N/N)C(C(=O)c1ccc(Cl)c(Cl)c1)C1OC(=O)c2ccccc21 (stereo not given)
Found: > 100 µM

---

Test system: COLO 205 colon
Assay Notes: NCI tumour cell line growth inhibition, 48 h
Measurement Type: TGI

COc1cc(Oc2nc3c(N)cc(C(F)(F)F)cc3nc2-c2ccccc2)cc(OC)c1OC :: > 80.7 µM
COC(=O)c1cc(-c2cccn2C)c2c(c1C(=O)OC)c1ccccc1n2C :: > 100 µM

Lookup: Give TGI; test system COLO 205 colon; molecule Nc1c(C(=O)Nc2ccccc2)sc2nc3c(cc12)CN(Cc1ccccc1)CC3
Found: > 100 µM

Lookup: Retrieve TGI on COLO 205 colon; query O=C1OCC/C1=C/c1ccc(N=Nc2c(O)ccc3ccccc23)cc1
Found: 58 µM

Lookup: Look up COLO 205 colon data: TGI of CC(C)C/C=C/C1=NN(c2cccc(S(=O)(=O)O)c2)C2(C1)SCC(=O)N2c1nc2ccccc2s1 (stereo not given) , then report it.
Found: > 100 µM

---

The following molecules are listed with their measured GI50 values.
System: NCI-H23 lung
Assay Notes: NCI tumour cell line growth inhibition, 48 h

Field: example entries. Status: answers known.
Nc1c(C(=O)Nc2ccccc2)sc2nc3c(cc12)CN(Cc1ccccc1)CC3 :: 21.7 µM
C/C=C/C=C/CCCCCCCCCCCCCC1(OC)C=CC(CC(=O)OC)OO1 (stereo unspecified) :: 4.3 µM
Cn1cc(-c2ccc(-c3cn(C)c4ccc(Cl)cc34)s2)c2cc(Cl)ccc21 :: > 100 µM
O=C(OCCBr)c1ccc(Cl)c([N+](=O)[O-])c1 :: 11.2 µM
O=C(COc1cccc(/C=C2\COc3ccc(Cl)cc3C2=O)c1)c1ccc(Cl)cc1 :: 13.4 µM

Lookup: Provide only the value of recorded GI50 for FC(F)(F)c1ccc(-c2cnc(Cl)nc2NCc2cc(C(F)(F)F)cc(C(F)(F)F)c2)cc1
Found: 3.28 µM

Lookup: Identify measured GI50 associated with O=C(CN(/C=C/C(=O)C(F)(F)F)c1ccccc1)c1ccc(Cl)c(Cl)c1
Found: 13.6 µM

Lookup: Determine from records and report GI50 for CCNCCNc1cc(C2CCCCC2)c(C#N)c2nc3ccccc3n12
Found: 2.06 µM

---

Tested on: NCI-H522 lung
Assay Notes: NCI tumour cell line growth inhibition, 48 h
Measurement Type: TGI (µM)
Give the value in µM but do not write µM after it.

Some solved cases for reference:
O=C(COc1cccc(/C=C2\COc3ccc(Cl)cc3C2=O)c1)c1ccc(Cl)cc1 :: 27.2
c1ccc(CSc2nnc3c4ccccc4c4ccccc4c3n2)cc1 :: 97.9
Nc1n[nH]c2ccc([C@@H]3Nc4ccc5[nH]ncc5c4[C@H]4C5C=CC(C5)[C@@H]34)cc12 (stereo not given in full) :: 12.7

API: the following record is the query input.
Lookup: Please supply the value of reported TGI for the item Cc1ccc2c(c1)C(=O)c1c-2n(CCCBr)c(=O)c2cc([N+](=O)[O-])ccc12
Found: 96.2

---

Test system: U251 CNS
Assay Notes: NCI tumour cell line growth inhibition, 48 h
Where a SMILES comes first, the peptide text is derived from it. The star is where a group is joined. Boc = CC(C)(C)OC(=O)*; OBn = c1ccc(CO*)cc1
Measurement Type: TGI

Illustrative cases are given below, each with its answer.
C/C(=N\NC(=S)NC(C)(C)C)c1ccccn1 :: > 85.9 µM
O=C(O)CC1OCC=C2CN3CCC45C6=CC(=O)C(=O)C([N+](=O)[O-])=C6NC4C1C2CC35 (stereo not given) :: > 100 µM
CC(NC(=O)C(Cc1ccccc1)NC(=O)C(Cc1ccccc1)NC(=O)OC(C)(C)C)C(=O)OCc1ccccc1 (stereo not drawn) (Boc-Phe-Phe-Ala-OBn; configuration not given here) :: > 100 µM
COc1ccc(C2(O)c3ccccc3C(=O)N(C)C2(O)c2ccc(OC)cc2)cc1 (stereo not given) :: > 100 µM

Now turn to the next compound.
Lookup: Specify measured TGI for C=C1C(=O)O[C@H]2[C@H]3O[C@@H](C[C@@H]12)[C@@]1(C)CC[C@H](O1)C(C)=CCC[C@H]3C .
Found: 2.97 µM

---

Test system: IGROV1 ovarian
Assay Notes: NCI tumour cell line growth inhibition, 48 h
Measurement Type: TGI (µM)
Entry rule: numbers only, all in µM.

// solved cases for TGI follow
CC(=O)O[C@H]1CC[C@@]2(C)[C@@H](CC[C@@H]3[C@@H]2CC[C@]2(C)C=C(C=O)C[C@@H]32)C1 :: 14.6
Cn1ccnc1C(=O)/C=C/c1ccc(CC(=O)Nc2ccc(C(F)(F)F)cc2)cc1 :: 12.9
COC(=O)C1=C(C)NC(C)=C(C(=O)OC)C1c1cccc(NO)c1 :: 30.4

Lookup: # return recorded TGI for entry Cc1c(Cl)cccc1NC1=C(Cl)C(=O)N(Cc2ccccc2)C1=O
Found: 56.5

---

Each item that follows carries a reported TGI.
System: SF-539 CNS
Assay Notes: NCI tumour cell line growth inhibition, 48 h

Lookup: Report measured TGI; entry is CC(=O)O[C@H]1CCn2c3c(c(C)c21)C(=O)C(N1CC1)=C(C)C3=O
Found: > 10 µM

---

System: SR leukemia
Assay Notes: NCI tumour cell line growth inhibition, 48 h
In this section, each of the molecules is paired with its reported TGI.

O=C(COc1cccc(/C=C2\COc3ccc(Cl)cc3C2=O)c1)c1ccc(Cl)cc1 :: 5.11 µM
COC(=O)[C@@]12C(=O)C(C)C(=O)[C@]1(C)C(C)=C[C@H]1[C@]3(C=O)CC[C@H](OC(C)=O)C(C)(C)[C@H]3CC[C@@]12C (stereo partly drawn) :: > 100 µM
CC(C)C/C=C/C1=NN(c2cccc(S(=O)(=O)O)c2)C2(C1)SCC(=O)N2c1nc2ccccc2s1 (stereo not drawn) :: 74.5 µM

Lookup: State TGI on SR leukemia. Entry: N#Cc1cc([N+](=O)[O-])ccc1NC(=O)/C(=N/N)C(C(=O)c1ccc(Cl)c(Cl)c1)C1OC(=O)c2ccccc21 (stereo not drawn)
Found: > 100 µM

Lookup: Using SR leukemia as the test system, report measured TGI of CCOc1ncn(-c2ccc(NC(=S)NC34CC5CC(CC(C5)C3)C4)cc2)n1 .
Found: > 100 µM

Lookup: Please report TGI with SR leukemia for item O=C1NC2C=CN(Cc3ccccc3)C=C2C(=O)N2CCCC12 (stereo not drawn) .
Found: > 100 µM

Lookup: Report its TGI with SR leukemia as the test system: CCCCCC[C@H]1C(=O)O[C@H](C)[C@H](NC(=O)c2cccc(NC=O)c2OC)C(=O)O[C@@H](C)[C@@H]1OC(=O)CC(C)C (tested in a mixture with another compound)
Found: 36 µM

Lookup: Supply TGI measured with SR leukemia for CC(C)(C#N)c1cc(C(=O)Nc2cc(Nc3ncccc3-c3ncnc4nc[nH]c34)ccc2F)cc(C(F)(F)F)c1 .
Found: > 10 µM

Provenance of the data: PubChem BioAssay (NCI)
